Assay: chemical genetic growth profiling, strain panel (AID 1159580);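 note: tested at 20 µM; growth read once vehicle control cultures reached saturation at 30 °C; 1 = growth at the plate median or of vehicle wells; lower values mean less growth of the strain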
Conditions: S. cerevisiae deletion strains, growth OD, locus YPL241C, strain CIN2
Among all 5,500 compounds or so, about 2,000 (36%) were called active. About 18% were inconclusive and are not listed. Cut-off read from the data, not from the text of the source: active = normalized growth mostly below about 0.91 (no sharp cut-off); inconclusive = no clear call, values can overlap the other calls; inactive = mostly above about 0.92. This is one part of the list.
Choose the fitting class; nothing outside active, inactive is accepted.

Please review the following examples before continuing.
compound	label_class
O=C(/C=N\Nc1ccccc1)Nc1ccccc1C(=O)O	active
CC(C)c1ccc(NC(=S)NC(=O)c2ccc(C(F)(F)F)cc2)cc1	inactive
COc1ccccc1OCCNCC(O)COc1cccc2[nH]c3ccccc3c12 (stereo not given)	inactive
O=[N+]([O-])c1ccc(O)c([N+](=O)[O-])c1	active
O=[N+]([O-])c1cc([As](=O)(O)O)ccc1O	inactive
O=C(NCCSCc1ccc(Cl)cc1)c1ccc(Cl)cc1	inactive

Next compound, please.
Ask | Tell me the assay call for C=CC(C1=CC(=O)C(OC)=CC1=O)c1ccc(O)cc1 (stereo not given) please.
Reply | inactive

====

In this section, each of the compounds is paired with its reported normalized growth.
Assay: chemical genetic growth profiling, strain panel (AID 1159580)
Settings: S. cerevisiae deletion strains, growth OD, locus YHR079C, strain IRE1 (second series), hits give low values
The campaign covered roughly 5,500 compounds. About 2,000 (36%) were called active. Roughly 18% stayed inconclusive and do not appear here. This is one part of the list.
Reply with just the number.

Reference set (2 entries):
compound	normalized growth
CNC[C@@H](O)c1ccc(O)c(O)c1	0.951
CCN(CC)CCNC(=O)c1cc(S(C)(=O)=O)ccc1OC	1.01

Ask | So what's the measured normalized growth for this one? `CC(=O)Oc1ccc(Cl)c2cccnc12`
Reply | 0.0563

Ask | So what's the measured normalized growth for this one? `Nc1nc2ncc(C(=O)O)nc2c(=O)[nH]1`
Reply | 1.05

Ask | So what's the measured normalized growth for this one? `Oc1c(I)cc(I)c2cccnc12`
Reply | 0.0873

Ask | So what's the measured normalized growth for this one? COC(=O)C[C@H]1C(C)(C)C(=O)[C@@H]2CC3=C4CC(=O)O[C@@H](c5ccoc5)[C@]4(C)CCC3[C@@]1(C)C2=O (stereo partly drawn)
Reply | 1

Ask | So what's the measured normalized growth for this one? `C[n+]1cccc(C(=O)[O-])c1`
Reply | 1.01

Ask | So what's the measured normalized growth for this one? CC(C)NCC(O)c1ccc(O)c(O)c1 (stereo not drawn)
Reply | 1

Ask | So what's the measured normalized growth for this one? NCC(O)c1ccc(O)cc1 (stereo not drawn)
Reply | 0.975

Ask | So what's the measured normalized growth for this one? `O=C(O)c1ccccc1Nc1cccc(C(F)(F)F)c1`
Reply | 0.988

Ask | So what's the measured normalized growth for this one? `NC[C@H](O)c1ccc(O)c(O)c1`
Reply | 1.02

Ask | So what's the measured normalized growth for this one? CC(=O)c1c(O)c(C)c(O)c2c1OC1=CC(=O)C(C(C)=O)C(=O)C12C (stereo not drawn)
Reply | 0.986

Ask | So what's the measured normalized growth for this one? CC(=O)O[C@H]1C[C@@H](OC(C)=O)C(C)(C)C2C[C@@H](OC(C)=O)[C@@]3(C)C4=CC(=O)O[C@@H](c5ccoc5)[C@]4(C)CCC3[C@]21C (stereo partly drawn)
Reply | 1

====

Experiment: chemical genetic growth profiling, strain panel (AID 1159580)
Conditions: S. cerevisiae deletion strains, growth OD, locus YBR021W, strain FUR4, hits give low values
About 2,000 (36%) of roughly 5,500 compounds were called active. Not shown: some 18% with an inconclusive outcome. Some of the results follow.
property_name: normalized growth

compound	property_name	reported
CC(=O)NCCCCCC(=O)O	normalized growth	1.02 (inactive)

Ask | So what's the measured normalized growth for this one? CO[C@H]1/C=C/O[C@@]2(C)Oc3c(C)c(O)c4c(O)c(c(/C=N/N5CCN(C)CC5)c(O)c4c3C2=O)NC(=O)/C(C)=C\C=C\C(C)[C@H](O)[C@@H](C)[C@@H](O)[C@@H](C)[C@@H](OC(C)=O)[C@@H]1C (stereo not given in full)
Reply | 0.998 (inactive)

====

Test: chemical genetic growth profiling, strain panel (AID 1159580);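 note: tested at 20 µM; growth read once vehicle control cultures reached saturation at 30 °C; 1 = growth at the plate median or of vehicle wells; lower values mean less growth of the strain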
Settings: S. cerevisiae deletion strains, growth OD, locus YNL322C, strain KRE1, hits give low values
About 2,000 (36%) of roughly 5,500 compounds were called active. Not shown: some 18% with an inconclusive outcome. This is one part of the list.
In this section, each of the compounds is paired with its reported normalized growth.
Reply with just the number.

Reference set (8 entries):
compound	normalized growth
CCCCCCCC/C=C\CCCCCCCC(=O)NCCO	0.978
CC(=O)OCC1(C)CCC2(C)CCC3(C)C4=CCc5c(cc(OC(C)=O)c(OC(C)=O)c5C)C4(C)CCC3(C)C2C1 (stereo unspecified)	1.02
Nc1ccccc1SCC(=O)Nc1c(F)cccc1F	1
C=C(C)[C@H]1CC=C(C(=O)O)CC1	1
N#Cc1c(N)sc2c1CCCCC2	0.964
COC(=O)c1ccc(-c2ccc(Cl)cc2)s1	0.92
CCN(CC)CCNC(=O)c1cc(S(C)(=O)=O)ccc1OC	0.961
Clc1cc(Cl)cc(-n2cccc2)c1	1

Ask | So what's the measured normalized growth for this one? `CCCc1cc(Br)c(-n2cccc2)c(Br)c1`
Reply | 0.997

====

Assay: chemical genetic growth profiling, strain panel (AID 1159580);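 note: tested at 20 µM; growth read once vehicle control cultures reached saturation at 30 °C; 1 = growth at the plate median or of vehicle wells; lower values mean less growth of the strain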
Conditions: S. cerevisiae deletion strains, growth OD, locus YEL061C, strain CIN8 (second series)
Out of some 5,500 compounds screened, about 2,000 (36%) were called active. About 18% were inconclusive and are not listed. No stated cut-off is given here; in the data, active means normalized growth mostly below about 0.91 (no sharp cut-off); inconclusive means no clear call, values can overlap the other calls; inactive means mostly above about 0.92. The list shows a part of the results.
Choose the fitting class; nothing outside active, inactive is accepted.

Please review the following examples before continuing.
compound	label_class
CC(=O)Nc1ccc(S(=O)(=O)c2ccc(NC(C)=O)cc2)cc1	inactive
O=C(O)CCCCC1CCSS1 (stereo not given)	inactive
NC(=NCCC[C@H](N)C(=O)O)NC(CCC(=O)O)C(=O)O (stereo not given in full)	inactive
C1CCN2CC3CC(CN4CCCCC34)C2C1 (stereo not given)	inactive
C=C(CC)C(=O)c1ccc(OCC(=O)O)c(Cl)c1Cl	inactive
Nc1ncnc2c1ncn2C1C[C@H](O)[C@@H](CO)O1 (stereo not given in full)	inactive
Cc1c(O)c(O)cc2c1CC=C1[C@@]2(C)CC[C@@]2(C)C3C[C@](C)(C(=O)O)CC[C@]3(C)CC[C@]12C (stereo not given in full)	active
NCCCC[C@H](N[C@@H](CCc1ccccc1)C(=O)O)C(=O)N1CCC[C@H]1C(=O)O	inactive
CC(=O)c1c(O)c(C)c(O)c2c1OC1=CC(=O)C(C(C)=O)C(=O)C12C (stereo not given)	active
COc1c2c(cc3c1OCO3)CCN(C)C2	inactive

Ask | Tell me the assay call for `Oc1ccc(Cl)c2cccnc12` please.
Reply | active

Ask | Tell me the assay call for `C[n+]1cccc(C(=O)[O-])c1` please.
Reply | inactive

Ask | Tell me the assay call for `CCCCC1=NC2(CCCC2)C(=O)N1Cc1ccc(-c2ccccc2-c2nn[nH]n2)cc1` please.
Reply | inactive

Ask | Tell me the assay call for `CN/C(=C\[N+](=O)[O-])NCCSCc1ccc(CN(C)C)o1` please.
Reply | inactive

====

Experiment: chemical genetic growth profiling, strain panel (AID 1159580);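 note: tested at 20 µM; growth read once vehicle control cultures reached saturation at 30 °C; 1 = growth at the plate median or of vehicle wells; lower values mean less growth of the strain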
Details: S. cerevisiae deletion strains, growth OD, locus YKR091W, strain srl3, hits give low values
The campaign covered roughly 5,500 compounds. About 2,000 (36%) were called active. Roughly 18% stayed inconclusive and do not appear here. The list shows a part of the results.
property_name: normalized growth
Reply with just the number.

Reference set (10 entries):
molecule	normalized growth
CC(=O)/C(=C\c1ccccc1)CC(=O)O	0.999
CC(=O)NCCCCCC(=O)O	0.985
Nc1ncnc2c1ncn2[C@@H]1O[C@H](CO)[C@@H](O)[C@H]1O	0.994
O=[N+]([O-])c1ccc(O)c([N+](=O)[O-])c1	0.808
Nc1ccc([As](=O)(O)O)cc1	1.01
Nc1ncnc2c1ncn2C1O[C@H](COP(=O)(O)O)[C@@H](O)[C@H]1O (some centres not stated)	0.995
COc1cccc(/C=C/C(=O)O)c1C(C)C	0.999
C[C@H](N)[C@H](O)c1ccc(O)c(O)c1	0.998
CC(=O)c1c(O)c(C)c(O)c2c1OC1=CC(=O)C(C(C)=O)C(=O)C12C (configuration not stated)	0.942
O=[N+]([O-])c1cc([As](=O)(O)O)ccc1O	0.975

Ask | So what's the measured normalized growth for this one? `O=[N+]([O-])c1cc(O)c(O)c([N+](=O)[O-])c1`
Reply | 1.01

Ask | So what's the measured normalized growth for this one? `COc1cc(OC)c2c(=O)c(-c3ccccc3)c(C)oc2c1OC`
Reply | 0.962
